// provenance: ChEMBL document CHEMBL1201862

For each of the molecules below, state its GI50.
Test system: HOP-62
Test Description: NCI tumour cell line growth inhibition, 48 h
Activity calls are given as the source filed them. Cut-off read from the data, not from the text of the source: active = GI50 up to about 1.1 µM and inactive = higher.

Sample `C(=N\c1ccc(-c2nc3ccccc3s2)cc1)/c1cccs1` — what was its GI50? 30.3 µM (inactive)

Sample `O=S(O)CCCSSCCCCSSCCCS(=O)O` — what was its GI50? > 100 µM (inactive)

Sample `O=C(Nc1ccc(Cl)cc1)NS(=O)(=O)c1coc2ccccc2c1=O` — what was its GI50? > 10 µM (inactive)

Sample `O=C(Nc1cccc(F)c1)c1cc2ccc(O)cc2o/c1=N\c1ccccc1F` — what was its GI50? 8.89 µM (inactive)

Sample CC1CCCC(C(=O)CC2CC(=O)NC(=O)C2)C1=O (centres undefined) — what was its GI50? > 100 µM (inactive)

Sample `CNC(=O)N(CCC#N)[C@H]1CCCC[C@@H]1N(C(=O)NC)c1ccccc1` — what was its GI50? > 100 µM (inactive)

Sample Cc1[nH]c2c(C)cccc2c1C1Cc2ccccc2N1 (centres undefined) — what was its GI50? 16.4 µM (inactive)

Sample BC(=O)NC(CC(C)C)C(=O)NCC(=O)NC1c2ccsc2C(=O)C1O.CN(C)C (centres undefined) — what was its GI50? > 100 µM (inactive)

Sample O=C1C[C@@H]2C(COC(=O)c3ccccc3)N(OCc3ccccc3)C[C@@H]2O1 (some centres undefined) — what was its GI50? > 100 µM (inactive)
